experiment: Cytotoxic assay, primary human PBM cells; assay type: cell-based; details: human, primary human PBM cells
MEASURE: IC50 at 5 day

Quick one: give measured IC50 at 5 day for `CC(=NNC(=O)CN1c2c(-c3ccccc3)n[nH]c2-c2ccccc2S1(=O)=O)c1cc2ccccc2o1`
> 100 µM

Identify IC50 at 5 day associated with the compound `CC(=NNC(=O)CN1c2c(-c3ccccc3)n[nH]c2-c2ccccc2S1(=O)=O)c1nccs1`
15.7 µM

State its IC50 at 5 day: `CC(=NNC(=O)CN1c2c(-c3ccccc3)n[nH]c2-c2ccccc2S1(=O)=O)c1ccc(C)s1`
62.3 µM

* * *

assay: Cytotoxic assay, primary human PBM cells; format: cell-based; conditions: human, primary human PBM cells
Below, each entry is listed alongside its reported IC50 at 5 day.
Field: numeric (µM). Do not append units.

CC(=NNC(=O)CN1c2c(-c3ccccc3)n[nH]c2-c2ccccc2S1(=O)=O)c1ccc(Br)s1 ... 10.5

Identify IC50 at 5 day associated with the compound `CC(=NNC(=O)CN1c2c(-c3ccccc3)n[nH]c2-c2ccccc2S1(=O)=O)c1ccsc1`
73.2

Could you please provide reported IC50 at 5 day for `CC(=NNC(=O)CN1c2c(-c3ccccc3)n[nH]c2-c2ccccc2S1(=O)=O)c1ccc([N+](=O)[O-])s1` ? Thanks!
85

Retrieve IC50 at 5 day measured for `CC(=NNC(=O)CN1c2c(-c3ccccc3)n[nH]c2-c2ccccc2S1(=O)=O)c1cc(C)sc1C` and print it.
36.5

State, in one line, measured IC50 at 5 day of `CC(=NNC(=O)CN1c2c(-c3ccccc3)n[nH]c2-c2ccccc2S1(=O)=O)c1ccc(Cl)s1`
13.9

Fill in reported IC50 at 5 day for this entry: `CC(=NNC(=O)CN1c2c(-c3ccccc3)n[nH]c2-c2ccccc2S1(=O)=O)c1ccc2ccccc2c1`
12.2

Look up IC50 at 5 day of `CC(=NNC(=O)CN1c2c(-c3ccccc3)n[nH]c2-c2ccccc2S1(=O)=O)c1cc(C)oc1C` and report it.
17.3

Look up and report measured IC50 at 5 day for this entry: `CC(=NNC(=O)CN1c2c(-c3ccccc3)n[nH]c2-c2ccccc2S1(=O)=O)c1sccc1Cl`
69.1

* * *

Reported values of IC50 at 5 day for individual entries
experiment: in vitro; conditions: human, CEM cells
Give the number; µM is assumed, so skip it.

CC(=NNC(=O)CN1c2c(-c3ccccc3)n[nH]c2-c2ccccc2S1(=O)=O)c1ccsc1 ... 10.7
CC(=NNC(=O)CN1c2c(-c3ccccc3)n[nH]c2-c2ccccc2S1(=O)=O)c1cc2ccccc2o1 ... 22.4

Find the measured IC50 at 5 day of `CC(=NNC(=O)CN1c2c(-c3ccccc3)n[nH]c2-c2ccccc2S1(=O)=O)c1ccc(C)s1` and report it.
13.8

Respond only with IC50 at 5 day recorded for `O=C(CN1c2c(-c3ccccc3)n[nH]c2-c2ccccc2S1(=O)=O)NN=Cc1cccs1`
13.9

Supply measured IC50 at 5 day of `CC(=NNC(=O)CN1c2c(-c3ccccc3)n[nH]c2-c2ccccc2S1(=O)=O)c1nccs1` in your reply.
8.2

# return recorded IC50 at 5 day for entry `CC(=NNC(=O)CN1c2c(-c3ccccc3)n[nH]c2-c2ccccc2S1(=O)=O)c1cc(C)cs1`
18.3

Tell me its IC50 at 5 day given `CC(=NNC(=O)CN1c2c(-c3ccccc3)n[nH]c2-c2ccccc2S1(=O)=O)c1sccc1Cl` as the entry.
16.8

Let me know recorded IC50 at 5 day for `CC(=NNC(=O)CN1c2c(-c3ccccc3)n[nH]c2-c2ccccc2S1(=O)=O)c1ccncc1` , thanks.
34.5

Recall and state the measured IC50 at 5 day for `CC(=NNC(=O)CN1c2c(-c3ccccc3)n[nH]c2-c2ccccc2S1(=O)=O)c1ccc([N+](=O)[O-])s1` .
5

Quick one: give measured IC50 at 5 day for `CC(=NNC(=O)CN1c2c(-c3ccccc3)n[nH]c2-c2ccccc2S1(=O)=O)c1cc(C)oc1C`
9.9

Quote IC50 at 5 day reported for `CC(=NNC(=O)CN1c2c(-c3ccccc3)n[nH]c2-c2ccccc2S1(=O)=O)c1sccc1C` please.
13.1

Identify measured IC50 at 5 day associated with `CC(=NNC(=O)CN1c2c(-c3ccccc3)n[nH]c2-c2ccccc2S1(=O)=O)c1cc2ccccc2oc1=O`
27.8

Fill in reported IC50 at 5 day for this entry: `CC(=NNC(=O)CN1c2c(-c3ccccc3)n[nH]c2-c2ccccc2S1(=O)=O)c1ccc(Cl)s1`
8.4

Annotate the molecule `CC(=NNC(=O)CN1c2c(-c3ccccc3)n[nH]c2-c2ccccc2S1(=O)=O)c1cc(Cl)sc1Cl` with its measured IC50 at 5 day.
14.4

Data provenance is paper PMC7732025.
